Source listed as PubChem BioAssay.

assay: DUSP6 inhibitors restoring Erk phosphorylation by chemical complementation, primary imaging in DUSP6-transfected HeLa (AID 609); conditions: HeLa MKP-3 transfected, phospho-Erk imaging KS statistic; measured here: cell density z-score; at 10 µM; cells stimulated with TPA for 15 min
measured-parameter: z-score

INSERT INTO assay_data (compound, readout_value) VALUES
  ('CC(C)c1cc(NCCCN2CCOCC2)n2c(nc3ccccc32)c1C#N', 1.24),
  ('N[C@@H](Cc1ccc(O)c(I)c1)C(=O)O', -0.528),
  ('C=CCn1c(=S)[nH]c2nc3c(cc2c1=O)COC(C)(C)C3', 1.01),
  ('Cc1onc(-c2ccccc2)c1C(=O)N[C@@H]1C(=O)N2[C@@H]1SC(C)(C)[C@@H]2C(=O)O', -0.0512),
  ('c1ccc(CN2CCN(c3ncnc4c3[nH]c3ccccc34)CC2)cc1', 0.378),
  ('O=c1[nH]nc2n1CCCCC2', 1.3),
  ('C(=N\n1cnnc1)/c1cccnc1', 0.785),
  ('Cc1c(O)c(CN2CCCC(C)C2)cc2c3c(c(=O)oc12)CCC3 (configuration not stated)', -0.479),
  ('CCc1cc2c(=O)c(-c3cscn3)coc2cc1O', -2.75),
  ('Cc1cc(C)n(CC2CC(=O)N(c3ccc(Cl)c(Cl)c3)C2=O)n1 (configuration not stated)', 0.432),
  ('O=C1C=C(NCCNc2c(F)c(F)c(CO)c(F)c2F)CCC1', 0.485),
  ('CNCCC=C1c2ccccc2CCc2ccccc21', -0.881),
  ('CCOC(=O)COc1nc(N(C)C)nc(N(C)C)n1', 0.237),
  ('N#CC1=C(SCc2ccccc2)NC2=C(C(=O)CCC2)C1c1ccc2c(c1)OCO2 (configuration not stated)', 0.352),
  ('COC(=O)/C=c1/s/c(=C(/C#N)C(=O)N2CCOCC2)n(-c2ccccc2)c1=O', 0.31),
  ('CCN1CCN(c2cc3c(cc2F)c(=O)c(C(=O)O)cn3C2CC2)CC1', 0.332),
  ('CCNC(=O)N(C(=O)NCC)n1c(C)nnc1C', -1.98),
  ('COc1ccc(C(C)=O)cc1CSCCC(=O)O', 1.45),
  ('COc1cc(-c2nn3c(COc4ccccc4)nnc3s2)cc(OC)c1OC', -0.725),
  ('CC(=O)c1c(N)nc2n(c1=O)CCCCC2', 0.366),
  ('Cc1cccc(C)c1OCC(O)CNS(=O)(=O)c1ccccc1C(=O)N1CCOCC1 (configuration not stated)', -0.426),
  ('O=C1CCc2nc3ccccc3c(=O)n2N1', -0.985);

====

assay: inhibitors of poly I:C-induced TLR3 signaling, primary screen, cell-based, poly I:C stimulus, luciferase, 10K MLSCN set (AID 602277); settings: HEK293-TLR3 RL24 IRF3 luciferase reporter, at 10 µM
Active and inactive are the calls of the source.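 How the source made its calls: active means inhibition of the reporter signal at or above 50%; inactive means inhibition below 50%.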
Possible outcomes: active, inactive

INSERT INTO measurements (compound, category) VALUES
  ('Cc1nn(C)cc1C1C2=C(CC(C)(C)CC2=O)OC2=C1C(=O)CC(C)(C)C2', 'inactive'),
  ('Cc1oc2cc(O)ccc2c(=O)c1-c1cnn(-c2ccccc2)c1', 'inactive'),
  ('COc1cccc(Cn2c(OCC3CCCO3)nc3c2c(=O)n(C)c(=O)n3C)c1 (configuration not stated)', 'inactive'),
  ('CCOC(=O)c1[nH]c2cc(OC)c(OC)cc2c1NC(=O)C(C)N1CCN(Cc2ccccc2)CC1 (configuration not stated)', 'inactive'),
  ('CC(O)Cn1cnc2c1c(=O)n(C)c(=O)n2C (configuration not stated)', 'inactive'),
  ('COc1cccc2c1C(=O)c1c(O)c3c(c(O)c1C2=O)C[C@@](O)(C(=O)CO)C[C@@H]3O[C@H]1C[C@H](N)[C@H](O)[C@H](C)O1', 'active'),
  ('CCC1CCCCN1c1nc(-c2ccncc2)nc2ccccc12 (configuration not stated)', 'inactive'),
  ('CCN1CCN(c2nc3c(C)cccn3c(=O)c2/C=C(\C#N)S(=O)(=O)c2ccccc2)CC1', 'inactive'),
  ('CCCCc1nc2n[nH]c(N)c2c2c1CCCC2', 'inactive'),
  ('Cc1cccc(COc2ccc(/C(O)=C3\C(=O)C(=O)N(CCN(C)C)C3c3ccncc3)cc2)c1 (configuration not stated)', 'inactive'),
  ('C[C@]12CCC(=O)C=C1CC[C@@H]1[C@@H]2[C@@H](O)C[C@@]2(C)[C@H]1CC[C@]2(O)C(=O)CO', 'inactive'),
  ('CCCCCCCCNC(C)C(O)c1ccc(SC(C)C)cc1 (configuration not stated)', 'inactive');

====

target: Voltage-gated potassium channel subunit beta-2 (Rattus norvegicus) (UniProt P62483); test: KvBeta positive modulators, primary screen, biochemical, NADPH fluorescence (AID 623); settings: Recombinant KvBeta, NADPH fluorescence decrease slope, 10 min; at 10 µM; stronger effect = lower value;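 note: fluorescence intensity change per second fitted from 20 to 320 s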
Sequence (P62483 whole entry, looked up): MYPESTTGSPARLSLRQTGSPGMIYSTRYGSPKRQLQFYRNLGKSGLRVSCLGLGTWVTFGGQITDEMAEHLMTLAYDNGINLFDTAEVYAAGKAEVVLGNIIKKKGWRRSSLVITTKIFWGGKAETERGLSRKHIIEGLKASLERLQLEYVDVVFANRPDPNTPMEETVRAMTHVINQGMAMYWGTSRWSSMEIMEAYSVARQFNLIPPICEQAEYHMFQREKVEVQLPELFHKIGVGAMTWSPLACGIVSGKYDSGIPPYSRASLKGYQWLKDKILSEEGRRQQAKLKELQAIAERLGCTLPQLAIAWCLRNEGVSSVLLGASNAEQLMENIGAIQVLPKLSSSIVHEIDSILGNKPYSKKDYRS
measured-parameter: NADPH fluorescence slope

INSERT INTO assay_data (compound, readout_value) VALUES
  ('Cc1c(/C(O)=C2/C(=O)C(=O)N(CCCN3CCOCC3)C2c2ccncc2)cnn1-c1ccccc1 (stereo not drawn)', '-1.5e-05'),
  ('CC1(C)Cc2nc(N)c(C(=O)NCCO)cc2CO1', '-3e-05'),
  ('O=c1oc2cc(O)ccc2c2oc3cc(O)ccc3c12', '-1e-05'),
  ('Cc1ccc(S(=O)(=O)N2CCC(N3CCCCCC3)CC2)cc1', '-8.7e-06'),
  ('CSc1nc(N)nc(SCC(=O)CC(=O)OC(C)C)c1C#N', '-4.1e-07'),
  ('CN(C)CCCN1c2ccccc2Sc2ccc(Cl)cc21', '-6e-05'),
  ('COc1c(O)ccc2cnn(-c3ccccc3C)c(=O)c12', '-1.2e-05'),
  ('CCCCN(CCCC)c1nc2ccccc2nc1C(C#N)C(=O)NCCCOC (stereo not drawn)', '9.1e-06'),
  ('C[C@@H]1C[C@H]2[C@@H]3C[C@H](F)C4=CC(=O)C=C[C@]4(C)[C@@]3(F)[C@@H](O)C[C@]2(C)[C@@]1(O)C(=O)COC(=O)C(C)(C)C', '-6.6e-05'),
  ('Cc1ccc2[nH]c3c(c2c1)CCCC3C(N)=O (stereo not drawn)', '-2.9e-05'),
  ('CC1C/C=C/C=C/C=C/C=C/C(O[C@@H]2O[C@H](C)[C@@H](O)[C@H](N)[C@@H]2O)CC2OC(O)(CC(O)CC3OC3/C=C/C(=O)O1)CC(O)C2C(=O)O (stereo partly drawn)', '-4.6e-05'),
  ('O=C(CCN1CCCCC1)Nc1cccc(Cl)c1', -0.000129),
  ('Cc1ccc2[nH]c(CCN(C)C)c(CC#N)c2c1', '-2.8e-05'),
  ('Cn1c2c(c(=O)n(C)c1=O)C(NC(=O)c1cccs1)(C(F)(F)F)C(=O)N2 (stereo not drawn)', '-9.1e-06'),
  ('CCOc1cccc(-c2nnc3sc(C4CCCCC4)nn23)c1', -0.000139),
  ('CCOC(=O)C1CCN(c2nc3ccccc3nc2C(C#N)C(=O)NCCc2ccccc2)CC1 (stereo not drawn)', '-6.6e-05'),
  ('Cc1cc(OCCN2CCOCC2)nc2ccccc12', '-9.4e-05'),
  ('CSc1nc2sc3c(c2c(=O)n1C1CCCCC1)CCN(C)C3', '-2.1e-06'),
  ('CC1(C)Cc2c(sc3c2C(=O)N(c2ccccc2)C2=NCCCN23)CO1', '-2e-05'),
  ('OCCNc1nc(-c2ccccc2)c2ccccc2n1', '-1.3e-05'),
  ('COCCCNC(=O)C(C#N)c1nc2ccccc2nc1N1CCCC1 (stereo not drawn)', 0),
  ('CCOc1cc(CN2CCOCC2)cc(C(C)=O)c1', '-1.5e-05'),
  ('Cc1cc(C)n(C(=O)CNC(=O)CCc2ccccc2)n1', '-2.5e-05'),
  ('COc1ccccc1N1CCN(CCOc2c(OC)cccc2OC)CC1', -0.000262),
  ('CCN(CC)C(=O)c1ccc(O)c(OC)c1', '-7.4e-05'),
  ('COc1ccccc1-c1cc(-c2cc(Cl)ccc2O)n[nH]1', '-1.7e-05'),
  ('CCNC(=O)Nn1c(C)nnc1C', -0.000298),
  ('O=C(c1nsnc1-c1ccccc1O)N1CCCCC1', '-9.1e-06');

====

target: Dual specificity protein phosphatase 6 (Homo sapiens); test: DUSP6 inhibitors restoring Erk phosphorylation by chemical complementation, primary imaging in DUSP6-transfected HeLa (AID 609); details: HeLa MKP-3 transfected, phospho-Erk imaging KS statistic; at 10 µM; stronger effect = higher value; cells stimulated with TPA for 15 min;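 for inhibition: phospho-Erk level distribution per well compared with pooled transfected vehicle control wells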
Each entry below lists one item and its recorded inhibition value.
measured-parameter: inhibition (%)

INSERT INTO assay_data (compound, target_of_assay, measured_parameter, readout_value) VALUES
  ('COC(=O)CNC(=O)c1c(C)cc(=O)oc1C', 'Dual specificity protein phosphatase 6 (Homo sapiens)', 'inhibition', 19.4),
  ('Cc1cc(C)n(CC(=O)n2c3c(c4ccccc42)CCCC3)n1', 'Dual specificity protein phosphatase 6 (Homo sapiens)', 'inhibition', -1.98),
  ('CCCCNC1=C(Br)C(=O)CC(C)(C)C1', 'Dual specificity protein phosphatase 6 (Homo sapiens)', 'inhibition', 11.9),
  ('Cn1c(=O)oc2cc(C(=O)c3ccccc3)ccc21', 'Dual specificity protein phosphatase 6 (Homo sapiens)', 'inhibition', 1.04),
  ('Cc1coc2c(O)cc3c(c12)OC1(N2CCCCC2)C(=O)NCCCC31 (stereo not given)', 'Dual specificity protein phosphatase 6 (Homo sapiens)', 'inhibition', -15);
